- Assayed Target: HOP-(1-543), full-length human HSP70/HSP90-organizing protein (Homo sapiens, UniProt P31948)
- Construct: full-length 1-543, His6-tagged (pCold I), E. coli BL21, Ni-NTA and Superdex 200; monomer
- Sequence (P31948 whole entry): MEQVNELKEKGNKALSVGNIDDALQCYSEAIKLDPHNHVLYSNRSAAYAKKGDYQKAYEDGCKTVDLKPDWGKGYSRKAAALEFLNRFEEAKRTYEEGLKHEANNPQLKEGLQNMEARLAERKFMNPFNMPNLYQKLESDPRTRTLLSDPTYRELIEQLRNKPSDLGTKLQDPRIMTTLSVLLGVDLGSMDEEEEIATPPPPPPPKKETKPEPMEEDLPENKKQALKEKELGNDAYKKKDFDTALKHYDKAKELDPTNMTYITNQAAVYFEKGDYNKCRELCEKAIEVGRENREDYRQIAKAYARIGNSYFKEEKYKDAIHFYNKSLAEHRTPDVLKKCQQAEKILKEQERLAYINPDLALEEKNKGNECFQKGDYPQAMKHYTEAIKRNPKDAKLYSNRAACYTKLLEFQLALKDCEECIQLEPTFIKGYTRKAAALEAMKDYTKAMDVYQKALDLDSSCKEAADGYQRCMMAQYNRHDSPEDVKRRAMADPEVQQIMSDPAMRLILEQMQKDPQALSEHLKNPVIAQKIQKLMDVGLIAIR
- Assay Method Text: 1H NMR titration (ATP H2/H8 shifts), non-linear fit
Value Kind: Kd (µM)
Just the number in µM, nothing appended.

Find the recorded Kd belonging to Nc1ncnc2c1ncn2[C@@H]1O[C@H](COP(=O)(O)OP(=O)(O)OP(=O)(O)O)[C@@H](O)[C@H]1O and report it. 350
